Target: T1, human PDL1-Fc (R & D Systems) (human, UniProt Q9NZQ7 19-239)
T1 construct: Bought reagent; not shown: Fc part of the bought fusion protein; not described
T1 sequence (Q9NZQ7 19-239 limits assumed): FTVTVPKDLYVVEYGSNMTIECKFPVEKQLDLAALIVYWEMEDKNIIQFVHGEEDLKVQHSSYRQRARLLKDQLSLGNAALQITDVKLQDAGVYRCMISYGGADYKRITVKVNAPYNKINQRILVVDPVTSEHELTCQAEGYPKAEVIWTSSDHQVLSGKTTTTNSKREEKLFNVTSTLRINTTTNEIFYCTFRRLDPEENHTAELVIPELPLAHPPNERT
Assay: ELISA, PDL1-Fc adsorbed, anti-human IgG (Fab specific)-HRP
READOUT_KIND: binding result

anti-PDL1 antibody G12H9 (antibody, V domains shown, Fully human IgG; also called PDL1 G12H9) VH: EVQLLESGGGLVQPGGSLRLSCAASGFTFSSYAMSWVRQAPGKGLEWVSSIWYQGLVTVYADSVKGRFTISRDNSKNTLYLQMNSLRAEDTAVYYCAKWSAAFDYWGQGTLVTVSS VL: DIQMTQSPSSLSASVGDRVTITCRASQSISSYLNWYQQKPGKAPKLLIYYASTLQSGVPSRFSGSGSGTDFTLTISSLQPEDFATYYCQQDNGYPSTFGQGTKVEIKR	binds
anti-PDL1 antibody C5H9 (antibody, V domains shown, Fully human IgG; also called PDL1 C5H9) VH: EVQLLESGGGLVQPGGSLRLSCAASGFTFSSYAMSWVRQAPGKGLEWVSSIWRNGIVTVYADSVKGRFTISRDNSKNTLYLQMNSLRAEDTAVYYCAKWSAAFDYWGQGTLVTVSS VL: DIQMTQSPSSLSASVGDRVTITCRASQSISSYLNWYQQKPGKAPKLLIYYASTLQSGVPSRFSGSGSGTDFTLTISSLQPEDFATYYCQQDNGYPSTFGQGTKVEIKR	binds
anti-PDL1 antibody C5B10 (antibody, V domains shown, Fully human IgG; also called PDL1 C5B10) VH: EVQLLESGGGLVQPGGSLRLSCAASGFTFSSYAMSWVRQAPGKGLEWVSSIWRNGIVTVYADSVKGRFTISRDNSKNTLYLQMNSLRAEDTAVYYCAKWSAGYDYWGQGTLVTVSS VL: DIQMTQSPSSLSASVGDRVTITCRASQSISSYLNWYQQKPGKAPKLLIYYASTLQSGVPSRFSGSGSGTDFTLTISSLQPEDFATYYCQQDNGYPSTFGQGTKVEIKR	binds

Origin of the recorded values: patent US20190382493A1
